Measured MFI at 50 nM accompanies every entry in the list below.
# assay-system: PD-1 expressed on cells (human)
# Sequence (chain, as listed by the source): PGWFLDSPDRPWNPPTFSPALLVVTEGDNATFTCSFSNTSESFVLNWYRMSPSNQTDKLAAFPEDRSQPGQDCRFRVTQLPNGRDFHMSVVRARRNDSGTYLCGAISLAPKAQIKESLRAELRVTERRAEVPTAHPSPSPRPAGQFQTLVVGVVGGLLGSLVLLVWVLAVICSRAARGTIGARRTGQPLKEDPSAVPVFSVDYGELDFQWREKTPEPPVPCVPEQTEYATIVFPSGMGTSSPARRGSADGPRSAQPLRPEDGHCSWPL
# experimental-protocol: flow cytometry, Jurkat/PD-1 cells

binder: variant PD-L2 IgV-Fc I13V, H15Q, R76G, I85F (Fc fusion) LFTVTVPKELYIVEQGSNVTLECNFDTGSHVNLGAITASLQKVENDTSPHRERATLLEEQLPLGKASFHIPQVQVGDEGQYQCIFIYGVAWDYKYLTLKVKA
MFI at 50 nM: 4740

binder: variant PD-L2 IgV-Fc E44D, V89D, W91R (Fc fusion) LFTVTVPKELYIIEHGSNVTLECNFDTGSHVNLGAITASLQKVDNDTSPHRERATLLEEQLPLGKASFHIPQVQVRDEGQYQCIIIYGDARDYKYLTLKVKA
MFI at 50 nM: 614

binder: Wild Type PD-L2 IgV (Fc fusion) LFTVTVPKELYIIEHGSNVTLECNFDTGSHVNLGAITASLQKVENDTSPHRERATLLEEQLPLGKASFHIPQVQVRDEGQYQCIIIYGVAWDYKYLTLKVKA
MFI at 50 nM: 9840

binder: variant PD-L2 IgV-Fc I13V, H15Q, T47A, Q82R, V89D (SEQ ID NO 725) (Fc fusion) LFTVTVPKELYIVEQGSNVTLECDFDTGSHVNLGAITASLQKVENDTSPHRERATLLEEQLPLGKASFHIPQVQVRDEGQYRCIIIYGDAWDYKYLTLKVKA
MFI at 50 nM: 61000
